Value source: patent US12606541B2

- TARGET SYSTEM: His6-TEV-PPARγ-(234-505) (Homo sapiens, UniProt P37231)
- Construct: The His6-TEV-PPARγ-(234-505) protein for assay was expressed and purified; TEV cleavage site (N); made in house
- Sequence (P37231 234-505): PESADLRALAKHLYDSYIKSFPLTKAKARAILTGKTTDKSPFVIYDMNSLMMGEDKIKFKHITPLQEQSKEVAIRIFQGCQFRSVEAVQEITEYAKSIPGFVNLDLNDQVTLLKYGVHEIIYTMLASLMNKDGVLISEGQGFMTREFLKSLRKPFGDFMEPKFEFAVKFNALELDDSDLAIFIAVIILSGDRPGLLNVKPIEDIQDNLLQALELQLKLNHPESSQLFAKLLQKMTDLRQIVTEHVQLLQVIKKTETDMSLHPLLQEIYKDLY
- METHOD: TR-FRET Assay to Measure Co-R Peptide Recruitment to PPARγ
- Format: biochemical
- CONDITION DETAILS: Co-R peptide (SMRT-ID2) recruitment; top final concentration 20 μM; read-out: TR-FRET i-Ag; AC50
Kindly state AC50 for each of the entries shown.
State just the number; it will be interpreted in nM.

Recall the reported AC50 of COc1cc(-c2cc(C(=O)N3CC[C@H](C(=O)NC4CCN(C5COC56CCC6)C4)CC34CC4)n[nH]2)c(F)cn1 (single isomer, unassigned) [Example 464-D] on His6-TEV-PPARγ-(234-505) (Homo sapiens, UniProt P37231) and write it down.
7.6

// fetch AC50; item: O=C(NC1CCC(O)(C(F)(F)F)CC1)C1CCN(C(=O)c2cc(-c3cc(Cl)ncc3F)[nH]n2)C2(CC2)C1 (single isomer, unassigned) [Example 529-A] ; system: His6-TEV-PPARγ-(234-505) (Homo sapiens, UniProt P37231)
756

Tell me AC50 of CCc1cc(-c2cc(C(=O)N3[C@@H]4CC[C@H]3C[C@H](C(=O)N[C@H]3CC[C@@](O)(C(F)(F)F)CC3)C4)n[nH]2)ccn1 [Example 316] when tested on His6-TEV-PPARγ-(234-505) (Homo sapiens, UniProt P37231).
67.9

Report its AC50 with His6-TEV-PPARγ-(234-505) (Homo sapiens, UniProt P37231) as the test system: COc1cc(-c2cc(C(=O)N3CCC(C(=O)NCc4cn(C)c5ccccc45)CC3)n[nH]2)c(Cl)cn1 [Example 187]
41.7

With His6-TEV-PPARγ-(234-505) (Homo sapiens, UniProt P37231) as the test system, provide measured AC50 for this compound: Cc1cc(-c2cc(C(=O)N3CCC(C(=O)NCc4ccc5[nH]nc(F)c5c4)CC3)n[nH]2)c(F)cn1 [Example 269]
12

Would you please give the reported AC50 of COc1cc(-c2cc(C(=O)N3CC[C@H](C(=O)NC4CCC5CCCN5C4)CC34CC4)n[nH]2)c(F)cn1 (single isomer, unassigned) [Example 376-C] with His6-TEV-PPARγ-(234-505) (Homo sapiens, UniProt P37231)?
19.2

Look up His6-TEV-PPARγ-(234-505) (Homo sapiens, UniProt P37231) data: AC50 of COc1cc(-c2cc(C(=O)N3CC[C@H](C(=O)NCc4ncc(N5CCN(C)CC5)cc4Cl)CC34CC4)n[nH]2)c(F)cn1 [Example 521] , then report it.
1.8

Output reported AC50 of the compound COc1cc(-c2cc(C(=O)N3CC[C@@H](C(=O)N[C@@H]4CCN(CC(C)(C)O)C4)CC34CC4)[nH]n2)c(F)cn1 [Example 344-A] on His6-TEV-PPARγ-(234-505) (Homo sapiens, UniProt P37231).
14800

Recall the reported AC50 of COc1cc(-c2cc(C(=O)N3CCC(C(=O)NCc4cccc5[nH]ncc45)CC3)n[nH]2)c(Cl)cn1 [Example 192] when tested on His6-TEV-PPARγ-(234-505) (Homo sapiens, UniProt P37231).
83.3

State measured AC50 of the compound COc1cc(-c2cc(C(=O)N3CC[C@H](C(=O)Nc4cnn5ccc(C)nc45)CC34CC4)n[nH]2)c(F)cn1 [Example 381] with His6-TEV-PPARγ-(234-505) (Homo sapiens, UniProt P37231).
12.3

Fill: AC50 (His6-TEV-PPARγ-(234-505) (Homo sapiens, UniProt P37231)) for this compound COc1cc(-c2cc(C(=O)N3CCC(C(=O)NCc4cc5cc[nH]c5cn4)CC3)n[nH]2)c(Cl)cn1 [Example 212]
79.2

// fetch AC50 for COc1cc(-c2cc(C(=O)N3CCC(C(=O)NC4C(C)(C)C(N5CCC(F)(F)C5)C4(C)C)CC34CC4)n[nH]2)c(F)cn1 (mixture of isomers) [Example 378] ; system: His6-TEV-PPARγ-(234-505) (Homo sapiens, UniProt P37231)
130

Enter AC50 (test system His6-TEV-PPARγ-(234-505) (Homo sapiens, UniProt P37231)) for COc1cc(-c2cc(C(=O)N3CCC(C(=O)N[C@H](C)c4cccc(F)c4)CC3)n[nH]2)c(Cl)cn1 [Example 153]
621

# return AC50 of COc1cc(-c2cc(C(=O)N3CC[C@H](C(=O)NCc4c(C(F)(F)F)cnn4C)CC34CC4)[nH]n2)c(F)cn1 [Example 507] (system: His6-TEV-PPARγ-(234-505) (Homo sapiens, UniProt P37231))
17.4

Please report AC50 with His6-TEV-PPARγ-(234-505) (Homo sapiens, UniProt P37231) for item COc1cc(-c2nc(C(=O)N3[C@@H]4CC[C@H]3CC(C(=O)NC3CCC(O)(C(F)(F)F)CC3)C4)n[nH]2)c(F)cn1 (stereo partly shown) [Example 305] .
217

Give the observed AC50 of COc1cc(-c2cc(C(=O)N3CCC(C(=O)N(C)Cc4cccc(Cl)c4)CC3)n[nH]2)c(F)cn1 [Example 161] for His6-TEV-PPARγ-(234-505) (Homo sapiens, UniProt P37231).
941

Would you please give the reported AC50 of COc1cc(-c2cc(C(=O)N3CC[C@H](C(=O)NC4(c5ncc(Cl)cc5Cl)CC4)CC34CC4)n[nH]2)c(F)cn1 [Example 458] with His6-TEV-PPARγ-(234-505) (Homo sapiens, UniProt P37231)?
3.8

Report its AC50 with His6-TEV-PPARγ-(234-505) (Homo sapiens, UniProt P37231) as the test system: COc1cc(-c2cc(C(=O)N3[C@@H]4CC[C@H]3C[C@H](C(=O)NC3CCC(N)(C(F)(F)F)CC3)C4)n[nH]2)c(F)cn1 (stereo partly shown) [Example 441]
56.7

Given COc1cc(-c2cc(C(=O)N3CC[C@H](C(=O)NC4CCN(CC5(O)COC5)C4)CC34CC4)n[nH]2)c(F)cn1 (single isomer, unassigned) [Example 454-B] , report its AC50 on His6-TEV-PPARγ-(234-505) (Homo sapiens, UniProt P37231).
100

// fetch AC50; item: COc1cc(-c2cc(C(=O)N3CC[C@H](C(=O)NC4(C#N)CC4)CC34CC4)n[nH]2)c(F)cn1 [Example 448] ; system: His6-TEV-PPARγ-(234-505) (Homo sapiens, UniProt P37231)
123

Fill in: AC50 on His6-TEV-PPARγ-(234-505) (Homo sapiens, UniProt P37231), entry COc1cc(-c2cc(C(=O)N3CC[C@H](C(=O)NC4CCN(C5COC56CNC6)C4)CC34CC4)n[nH]2)c(F)cn1 (single isomer, unassigned) [Example 461-A]
272

Tell me AC50 of COc1cc(-c2cc(C(=O)N3CCC(C(=O)NC4CCN(C)c5ccccc54)CC3)n[nH]2)c(Cl)cn1 (racemic) [Example 186] when tested on His6-TEV-PPARγ-(234-505) (Homo sapiens, UniProt P37231).
202

Send back His6-TEV-PPARγ-(234-505) (Homo sapiens, UniProt P37231) AC50 of COc1cc(-c2cc(C(=O)N3CC[C@H](C(=O)N[C@H]4CC[C@@](OCCN(C)C)(C(F)(F)F)CC4)CC34CC4)n[nH]2)c(F)cn1 [Example 329-A] only.
7.5

# lookup: His6-TEV-PPARγ-(234-505) (Homo sapiens, UniProt P37231) AC50, key = CO[C@]1(C(F)(F)F)CC[C@H](NC(=O)[C@H]2CCN(C(=O)c3cc(-c4cc(C)ncc4F)[nH]n3)C3(CC3)C2)CC1 (single isomer, unassigned) [Example 293-D]
17

Quote His6-TEV-PPARγ-(234-505) (Homo sapiens, UniProt P37231) AC50 for entry COc1cc(-c2cc(C(=O)N3CC[C@H](C(=O)NCc4ncc(F)cc4Cl)CC34CC4)n[nH]2)c(F)cn1 [Example 362] .
3.7
